- run description: NCI Yeast Anticancer Drug Screen. Data for the sgs1 mgt1 strain (AID 161);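 further: 0% = growth of cultures given vehicle only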
- applied conditions: S. cerevisiae sgs1 mgt1 strain, at 5.0 µM (retest, dose inferred, filed as 0.5), hits give high values
The panel holds about 79,000 compounds, 15% with a hit somewhere; the sample as a whole holds those more often.
Record form. Attribute: growth inhibition. Fill in for each entry.
Answers are plain numbers, in %.

Reference set (5 entries):
> print(dat)
                                   compound  experimental.result
1  CCCOc1ccc(-c2nc(-c3ccc(N=Cc4ccc(N(CCOS(C)(=O)=O)CCOS(C)(=O)=O)cc4C)cc3)cs2)cc1                    8
2         Cc1cc(N)c2c(c1O)C(=O)c1ccccc1C2=O                   -5
3           ClC1=C(Cl)C2c3ccccc3C1c1ccccc12                    0
4  CC1(COc2ccccc2OCC2(C)CO2)CO1 (stereo not drawn)                    0
5  O=C(Cn1cnc2ccc([N+](=O)[O-])cc21)N1CCN(c2ccccc2)CC1                  -25

Give growth inhibition for each listed item.
1. CS/C(N)=N/NC(=O)CCC(=O)Nc1cc(Cl)c(Cl)cc1Cl
2. Clc1ccc(-c2noc(CN3CCCCC3)n2)cc1
3. O=C(O)Cc1nc2ccccc2[nH]1
4. CC(=O)[O-].CC(=O)[O-].CC(=O)[O-].CC(=O)[O-].Cn1c(=O)c2[nH]cnc2n(C)c1=O.Cn1c(=O)c2[nH]cnc2n(C)c1=O.[Rh+2].[Rh+2]
5. COc1ccc2nc3cc(Cl)ccc3c(Nc3ccc(O)c(CNCCO)c3)c2c1
6. CCOC(=O)/C=C(\C)OCC
7. CN(CC(=O)O)c1ncc2c(n1)-c1ccccc1OC2
8. Nc1ccc2ccccc2c1Cc1c(O)ccc2ccccc12

Resp:
1: 6; 2: 2; 3: 14; 4: 12; 5: -5; 6: -4; 7: 6; 8: 6

Give growth inhibition for each listed item.
1. Cc1c(N)cc(I)cc1[N+](=O)[O-]
2. C[N+](C)(C)c1nc(N)nc2c1ncn2C1OC(CO)C(O)C1O (stereo not drawn)
3. COc1cc(OC)c(SSCCCCS(=O)O)c(OC)c1
4. CCCCCc1ccc2cc(C(=O)O)[nH]c2c1
5. CN(C)c1ccc(/C=C(\C#N)c2c(F)cccc2F)cc1
6. O=C(NCCCNCCNC(=O)c1cc(-c2ccccc2)nc2ccccc12)c1cc(-c2ccccc2)nc2ccccc12
7. CN(C)c1nc(=NCc2ccccc2)ss1

Resp:
0
9
11
-4
4
-4
19

Give growth inhibition for each listed item.
1. O=C(CNC(=O)c1ccccc1)Oc1c(Cl)c(Cl)c(Cl)c(Cl)c1Cl
2. O=S(O)CCCCCSSc1ccccc1
3. Cc1cc(N/N=C/c2cccc3ccccc23)c2cc3c(cc2n1)OCO3

Resp:
38
3
27

Values compiled from PubChem BioAssay (NCI).
